Origin of values: patent US4691024A

# System: peripheral leucocytes
# procedure-details: Effect on the peripheral leucocytes number in Sarcoma 180 bearing mice
# Assay type: in vivo
# reported-conditions: Sarcoma 180 bearing ddy mice; intraperitoneal 24 hours after implantation; blood 4 days later
Response field class: enum, chosen by comparing WBC4000 (dosage corresponding to 4000 peripheral leucocytes/mm^3) against class 0 = under 20 mg/kg, class 1 = from 20 mg/kg up to 50 mg/kg, class 2 = 50 mg/kg and over

[
  {
    "compound": "CC1=C(NCCSSC[C@H](N)C(=O)NCC(=O)O)C(=O)C2=C(C1=O)N1C[C@H]3[C@H](N3C)[C@]1(O)[C@H]2COC(N)=O (stereo partly shown)",
    "category": "class 2"
  },
  {
    "compound": "CO[C@@]12[C@H](COC(N)=O)C3=C(C(=O)C(C)=C(NCCSSC(C)(C)[C@H](N)C(=O)O)C3=O)N1C[C@@H]1N[C@@H]12",
    "category": "class 0"
  },
  {
    "compound": "CO[C@@]12[C@H](COC(N)=O)C3=C(C(=O)C(C)=C(NCCSSc4ccc(NC(C)=O)cc4)C3=O)N1C[C@@H]1N[C@@H]12",
    "category": "class 0"
  },
  {
    "compound": "CO[C@@]12[C@H](COC(N)=O)C3=C(C(=O)C(C)=C(NCCSSc4ccc(F)cc4)C3=O)N1C[C@@H]1N[C@@H]12",
    "category": "class 0"
  },
  {
    "compound": "CC1=C(NCCSSC[C@H](N)C(=O)O)C(=O)C2=C(C1=O)N1C[C@H]3[C@H](N3C)[C@]1(O)[C@H]2COC(N)=O (stereo partly shown)",
    "category": "class 2"
  }
]

Input line: Class (by measured WBC4000 (dosage corresponding to 4000 peripheral leucocytes/mm^3)) for CO[C@@]12[C@H](COC(N)=O)C3=C(C(=O)C(C)=C(NCCSSC(C)(C)[C@@H](N)C(=O)O)C3=O)N1C[C@@H]1N[C@@H]12
Output line: class 0

Input line: Returns: class label. Input: CO[C@@]12[C@H](COC(N)=O)C3=C(C(=O)C(C)=C(NCCSSC[C@H](N)C(=O)O)C3=O)N1C[C@@H]1N[C@@H]12
Output line: class 1

Input line: Given CC(=O)Nc1ccc(SSCCNC2=C(C)C(=O)C3=C(C2=O)[C@H](COC(N)=O)[C@@]2(O)[C@@H]4[C@H](CN32)N4C)cc1 (stereo partly shown) , name the class its WBC4000 (dosage corresponding to 4000 peripheral leucocytes/mm^3) places it in.
Output line: class 1
